- assay-target: recombinant human IL-21 (human, UniProt Q9HBE4 30-162, limits assumed)
- Sequence (Q9HBE4 30-162 limits assumed, form in doubt): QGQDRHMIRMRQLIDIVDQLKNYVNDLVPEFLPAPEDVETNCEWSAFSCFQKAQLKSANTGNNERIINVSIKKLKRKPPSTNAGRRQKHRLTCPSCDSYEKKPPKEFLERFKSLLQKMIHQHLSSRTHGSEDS
- assay-protocol: cell-based or functional assay
measured-metric: IC50 in PC differentiation assay (2 nM IL-21) (nM)
Give a bare numeral; the unit nM is implied.

## Task Could you share which IC50 in PC differentiation assay (2 nM IL-21) value was measured for murine monoclonal antibody 9F11 (antibody, V domains shown, also called 9F11.1) VH: EVELVESGGGLVQPGGSMKLSCAASGFTFSDAWMDWVRQSPEKGLEWVAEIRSEADNHPTYYAESVKGRFTISRDDSKSSVYLQMNSLRAEDSGIYYCTEYDYEGFVHWGQGTLVTVSA VL: DIVLTQSPASLAVSLGQRATISCRASKSVSTYGYSYMHWYQQKPGQPPKLLIYLASNLESGVPARFSGSGSGTDFTLNIHPVEEEDAATYYCQHSRELPLTFGAGTKLELK ?
## Result 47.3
